Ref: patent US20250368678A1

assay: In vitro liver microsomal stability assay, human; format: in vitro ADME; conditions: Human liver microsomes
Mark Y only for CLint scaled at 1 µM values smaller than 40 mL/min/kg; exact matches and larger values are N.

Example results:
>>> label("C[C@@]1(O)CC[C@H]2[C@H](CC[C@@H]3[C@@H]2CC[C@]2(C)[C@@H](C(=O)Cn4ncn(-c5ccc(F)cc5)c4=O)CC[C@@H]32)C1")
"Y"
>>> label("C[C@@]1(O)CC[C@H]2[C@H](CC[C@@H]3[C@@H]2CC[C@]2(C)[C@@H](C(=O)Cn4cnn(C5CCCC5)c4=O)CC[C@@H]32)C1")
"N"
>>> label("C[C@@]1(O)CC[C@H]2[C@H](CC[C@@H]3[C@@H]2CC[C@]2(C)[C@@H](C(=O)Cn4cnn(-c5ccnc(OCC(F)(F)F)c5)c4=O)CC[C@@H]32)C1")
"Y"
>>> label("C[C@@]1(O)CC[C@H]2[C@H](CC[C@@H]3[C@@H]2CC[C@]2(C)[C@@H](C(=O)Cn4cnn(-c5cccnc5)c4=O)CC[C@@H]32)C1")
"N"

Here's an entry: C[C@@]1(O)CC[C@H]2[C@H](CC[C@@H]3[C@@H]2CC[C@]2(C)[C@@H](C(=O)Cn4cnn(-c5cccc(C#N)c5)c4=O)CC[C@@H]32)C1 . Is its CLint scaled at 1 µM below 40 mL/min/kg?
Y
